system: MALME-3M melanoma; test: NCI-60 one-dose screen, 48 h; conditions: 10 µM unless noted
The panel holds about 83,000 compounds, 20% with a hit somewhere; the sample as a whole holds those more often. Active and inactive are the calls of the source. The calls were made as follows: active = growth percent below 10; inactive = the rest.
// allowed return values: 1 (active), -1 (inactive)

- compound: "C=CC(=O)NCCOc1cccc(Nc2cc(NCCCNC(=O)C3CCC3)c(Br)cn2)c1"
  target-or-test-system: "MALME-3M melanoma"
  category: 1
- compound: "COc1ccc2c(c1)c(-c1cc(-c3cn(C)c4ccc(OC)cc34)on1)cn2C"
  target-or-test-system: "MALME-3M melanoma"
  category: -1
- compound: "O=C(CN1CCN(c2cc3c(cc2F)c(=O)c(C(=O)O)cn3C2CC2)CC1)N/N=C/c1ccncc1"
  target-or-test-system: "MALME-3M melanoma"
  category: -1
- compound: "CCCCCCCCCCCCCCCCCCOc1ccccc1CC(=O)OCC[N+]1(C)CCOCC1"
  target-or-test-system: "MALME-3M melanoma"
  category: -1

Returns: the outcome recorded for O=C(Cn1cc(CN2C(=O)c3ccccc3S2(=O)=O)nn1)Nc1cccc(Cl)c1 in this assay.
-1

GET /call?item= O=C(c1ccc(Cl)cc1Cl)N1c2ccccc2Sc2ccccc21 returns the recorded outcome of this test.
-1

Recorded call for FC(F)(F)c1[nH]ncc1-c1nc2c(N3CCCCC3)cc3[nH]ncc3c2c2c1CCCC2 ?
1

What did this assay record as the result for CCC(CC)(N(CC(=O)O)CC(=O)O)C(CC)(CC)N(CC(=O)O)CC(=O)O ?
-1

* * *

Tested on: TK-10 renal
Assay: NCI-60 one-dose screen, 48 h
Details: 10 µM unless noted
Experimental: Growth inhibition of the TK-10 human tumor cell line is measured as a screen for anti-cancer activity. Cells are grown in 96 well plates and exposed to the test compound for 48 hours. Compounds are tested at a single concentration, which is 10^-5 M for most compounds. The reported endpoint is percent growth (GI% or GIPRCNT), where numbers from 0 - 100% represent growth inhibition, and numbers from -100% - 0 represent cell death. For example, a value of 40 represents 60% growth inhibition. […]
This is part of a sample that, as a whole, favours compounds with a hit. Of some 83,000 tested, about 20% had one in any assay. The source made the active and inactive calls. How the source made its calls: active means growth percent below 10; inactive means the rest.
In this exercise, the only acceptable responses are YES (active), NO (inactive)

Check out these entries, answers already filled in.
- compound: "COc1ccc2cc(-c3ccc(-c4ccc(C(=N)N)s4)s3)ccc2c1"
  target-or-test-system: "TK-10 renal"
  category: "NO"
- compound: "CN(C)Cc1ccc(C(=O)Nc2ccc3ncnc(Nc4ccc(Oc5cccc(F)c5)c(Cl)c4)c3c2)cc1"
  target-or-test-system: "TK-10 renal"
  category: "YES"
- compound: "Cc1cc(C(=O)Nc2cc(Nc3ncccc3-c3ncnc4nc[nH]c34)ccc2F)cc(C(F)(F)F)c1"
  target-or-test-system: "TK-10 renal"
  category: "NO"
- compound: "Oc1c(I)cc(-c2nc3ccccc3s2)cc1CN(Cc1ccccn1)Cc1ccccn1"
  target-or-test-system: "TK-10 renal"
  category: "NO"
- compound: "CCCCCCNc1nc(NCCCCCC)c2[nH]c(NCCCCCC)nc2n1"
  target-or-test-system: "TK-10 renal"
  category: "NO"
- compound: "Cn1cc(-c2nonc2-c2c[nH]c3ccc(F)cc23)c2cc(Br)ccc21"
  target-or-test-system: "TK-10 renal"
  category: "NO"
- compound: "CC(/C=C1\\SC(=S)N(CC(=O)NC(Cc2c[nH]c3ccccc23)C(=O)O)C1=O)=C\\c1ccccc1 (stereo not given)"
  target-or-test-system: "TK-10 renal"
  category: "NO"
- compound: "CCCCN1C(=O)/C(=c2\\sc3n(c2=O)NC2C(N=3)N(CC)C(=O)N2CC)c2ccccc21 (stereo not given)"
  target-or-test-system: "TK-10 renal"
  category: "NO"

// return assay outcome for Cc1cc(F)ccc1S(=O)(=O)Nc1cc(-c2c(O)ccc3ccccc23)c(O)c2ccccc12
NO

Please indicate how the test categorized N#Cc1nc2c(S(=O)(=O)c3ccccc3)c(N)n(Cc3cccnc3)c2nc1C#N .
NO

Recorded test call requested for CCN1C(=O)N(CC)C2C1NN=c1s/c(=C\c3ccccc3Br)c(=O)n12 (stereo not given)
NO

Recorded test call requested for O=C(Nc1cccnc1Nc1ccc(Cl)cc1)c1cn(Cc2ccc(F)cc2)nn1
NO

# outcome recorded in this test, key = CC(CN)[C@@H]1CC[C@]2(CO)CC[C@]3(C)[C@H](CC[C@@H]4[C@@]5(C)CCC(N)C(C)(C)[C@@H]5CC[C@]43C)[C@@H]12 (stereo not given in full)
NO

For C=NNc1ccccc1 , which call appears in the assay record?
NO

For this compound, state the assay outcome: CCN(CC)S(=O)(=O)c1ccc(S(=O)(=O)N2CCC[C@@H](C(=O)N3CCN(C(=O)OC(C)(C)C)CC3)C2)cc1
NO

* * *

Reported growth values for a set of molecules
Tested on: KM12 colon
Assay: NCI-60 one-dose screen, 48 h (100 = growth as untreated, 0 = no growth, -100 = all killed)
Settings: 10 µM unless noted
Experimental: Growth inhibition of the KM12 human tumor cell line is measured as a screen for anti-cancer activity. Cells are grown in 96 well plates and exposed to the test compound for 48 hours. Compounds are tested at a single concentration, which is 10^-5 M for most compounds. The reported endpoint is percent growth (GI% or GIPRCNT), where numbers from 0 - 100% represent growth inhibition, and numbers from -100% - 0 represent cell death. For example, a value of 40 represents 60% growth inhibition. […]
This is part of a sample that, as a whole, favours compounds with a hit. Of some 83,000 tested, about 20% had one in any assay.
Answer format: numeric, % implied, no suffix.

Here is how some molecules turned out for growth.
- molecule: "N=C(N)c1ccc(-c2ccc(-c3ccc(Cl)cc3)o2)o1"
  experimental-readout: "growth"
  value-unit: "%"
  reported: -84.9
- molecule: "CS(=O)(=O)Nc1cc(-c2ccc3ncnc(Nc4ccc5c(cnn5Cc5cccnc5)c4)c3c2)cnc1Cl"
  experimental-readout: "growth"
  value-unit: "%"
  reported: 82.9
- molecule: "COc1cc(N2C(=O)[C@H](c3ccccc3)C2c2ccc(SC)cc2)cc(OC)c1OC (some centres not stated)"
  experimental-readout: "growth"
  value-unit: "%"
  reported: 10.2
- molecule: "CN(C)c1ccc(/C=C2/C=C(c3ccccc3)OC2=O)cc1"
  experimental-readout: "growth"
  value-unit: "%"
  reported: 63.5

Can you share its growth? I mean this molecule: O=C(CN1C(=O)NC2NC(=O)NC21)N/N=C/c1ccc(Cl)cc1Cl (configuration not stated)
105

Which measured growth value corresponds to O=C(Nc1ccccc1)c1sc(-c2ccccc2)cc1O ?
85.1

Look at this molecule and give its reported growth. CCSC1=CC(=O)c2ccccc2C1=O
93.8

State the recorded growth for this entry: O=C1/C=C/[C@@H](O)[C@@H]2C[C@@H](O)C[C@H]2/C=C/CCC[C@H](CCOCc2ccccc2)O1
-60.5

Entry Cc1c2cnccc2c(C)c2c1c1cc(C3OCCCO3)ccc1n2C : reported growth = ?
5.75

* * *

test system: HS 578T breast; assay: NCI-60 one-dose screen, 48 h; conditions: 10 µM unless noted
This is part of a sample that, as a whole, favours compounds with a hit. Of some 83,000 tested, about 20% had one in any assay. Activity calls are given as the source filed them. How the source made its calls: active means growth percent below 10; inactive means the rest.
Choose one outcome from this list and give only that: active, inactive

- compound: "COc1ccc(Cn2cc(C(=O)N=Nc3c(O)[nH]c4c(Cl)cccc34)nn2)cc1"
  category: "inactive"
- compound: "O=C(/C=C/c1ccccc1)Nc1ncc(Cc2ccccc2)s1"
  category: "inactive"
- compound: "COP(=O)(OC)c1nnn(-c2cccc([N+](=O)[O-])c2)c1C"
  category: "inactive"

Just curious, what result did CCN1C(=O)N(CC)C2C1NN=c1s/c(=C\c3ccccc3Br)c(=O)n12 (stereo not drawn) get here?
inactive

I'd appreciate the recorded outcome for O=C1/C(=C/c2cccc([N+](=O)[O-])c2)COc2ccc(O)cc21 from this test.
inactive

What outcome does the record of this test show for Cc1nc2sc(C(=O)Nc3ccccc3)c(N)c2cc1C(=O)/C=C/c1ccccc1 ?
inactive

Lab log entry: C=CC(=O)N1CCN(c2ccc3cccc(NC(=O)c4cnc(C)cn4)c3n2)CC1 — outcome as called in the assay?
inactive

Kindly provide the recorded test outcome for the following compound: C=C(CN1CC=CCC1)[C@@H]1CC[C@]2(CO)CC[C@]3(C)[C@H](CC[C@@H]4[C@@]5(C)CC[C@H](O)C(C)(C)[C@@H]5CC[C@]43C)[C@@H]12
inactive

Could you please tell me the result logged for CC1CN=C(c2cccc(-c3ccc(-c4ccccc4)o3)c2)N1 (stereo not drawn) in this assay?
inactive

Test call for this compound, please: CN1CCN(Cc2cc(NC(=O)c3cccc(C#Cc4cccc5[nH]nc(N)c45)c3)cc(C(F)(F)F)c2)CC1
inactive

Could you check what this test reported for COc1cc(-c2cc(-c3ccc(Nc4ncnc5cc(Cl)ccc45)cc3)nc(N3CCN(C)CC3)n2)cc(OC)c1OC ?
inactive

What call does the record list for COc1ccc(/C(C)=C(\c2ccc(OCCN3CCCCCC3)cc2)c2ccc(OC(=O)c3ccccc3)cc2)cc1 ?
inactive

// param item: COc1ccc(C/C(C)=C(/c2ccc(OCCN3CCCCCC3)cc2)c2ccc(OC(=O)NCc3ccccc3)cc2)cc1 ; yields the recorded call
inactive

What is the recorded call for this compound in the test? CCC/C(=N\NC(N)=O)C(OC)OC
inactive

Could you please tell me the result logged for CCN(CC)c1ccc(/C=N/NC(=O)c2ccc(Nc3ccnc(C(F)(F)F)c3)cc2)c(O)c1 in this assay?
inactive

Could you check what this test reported for COc1cc(N2C(=O)[C@H](c3ccccc3)C2c2ccc(SC)cc2)cc(OC)c1OC (stereo partly drawn) ?
inactive
